Experiment: Half life in CB17 SCID-Beige mouse subcutaneously inoculated with WSUDLCL2 cells at 100 mg/kg, ip
Format: ADME, organism-based
Conditions: in vivo
Experimental Readout: half-life (h)

COC(=O)c1ccc([C@H]2c3[nH]c4ccccc4c3C[C@H](C(=O)OC)N2C(=O)CCl)cc1 : 1.8

====

Assay: Stability in human plasma assessed as half life
Format: ADME, cell-free
Labelling field: enter true (1) if recorded half-life is less than 4 h. Enter false (0) if it equals or exceeds that cut-off.

C=CC(=O)N1[C@@H](c2ccccc2)c2[nH]c3ccccc3c2C[C@@H]1C(=O)OC : true (1)
O=C([C@H]1Cc2c([nH]c3ccccc23)[C@H](c2ccccc2)N1C(=O)CCl)N1CCCC1 : false (0)
COC(=O)[C@H]1Cc2c([nH]c3ccccc23)[C@H](c2cccc(S(C)(=O)=O)c2)N1C(=O)CCl : false (0)
Cc1noc([C@H]2Cc3c([nH]c4ccccc34)[C@H](c3ccccc3)N2C(=O)CCl)n1 : false (0)
Cc1noc([C@H]2Cc3c([nH]c4ccccc34)[C@H](c3ccc(S(C)(=O)=O)cc3)N2C(=O)CCl)n1 : true (1)
COC(=O)c1ccc([C@H]2c3[nH]c4ccccc4c3C[C@H](C(=O)OC)N2C(=O)CCl)cc1 : false (0)

====

Test: Cmax in CB17 SCID-Beige mouse subcutaneously inoculated with WSUDLCL2 cells at 30 mg/kg, ip
Assay type: ADME, organism-based
Design: dose 30 mg/kg, route ip
Settings: in vivo
Experimental Readout: Cmax (ng/mL)

COC(=O)[C@H]1Cc2c([nH]c3ccccc23)[C@H](c2ccc(C(F)(F)F)cc2)N1C(=O)CCl : 410

====

Quick reference: solubility of the listed items.
Assay: Aqueous solubility of the compound at pH 1
Assay type: physicochemical
Experimental Readout: solubility

COC(=O)c1ccc([C@H]2c3[nH]c4ccccc4c3C[C@H](C(=O)OC)N2C(=O)CCl)cc1 : < 0.8 µM
COC(=O)[C@H]1Cc2c([nH]c3ccccc23)[C@H](c2ccc(C(F)(F)F)cc2)N1C(=O)CCl : < 0.8 µM

====

Quick reference: clearance of the listed items.
Experiment: Plasma clearance in iv dosed mouse
Assay type: ADME, organism-based
Experimental Readout: clearance (mL/min/kg)

COC(=O)[C@H]1Cc2c([nH]c3ccccc23)[C@H](c2ccccc2)N1C(C)=O : 50
COC(=O)c1ccc([C@H]2c3[nH]c4ccccc4c3C[C@H](C(=O)OC)N2C(=O)CCl)cc1 : 478

====

Tested on: NCI-H1703
Test: Induction of ferroptosis in human NCI-H1703 cells assessed as cell viability incubated for 72 hrs by CellTiter-Glo luminescent cell viability assay
Format: functional, cell-based
Settings: NCI-H1703, 72 h
pEC50: −log10 of the molar value.
Quick reference: pEC50 of the listed items.
Experimental Readout: pEC50

COC(=O)[C@H]1Cc2c([nH]c3ccccc23)[C@H](c2ccc(S(C)(=O)=O)nc2)N1C(=O)CCl : 6.93
COC(=O)[C@H]1Cc2c([nH]c3ccccc23)[C@H](c2ccc(F)cc2Cl)N1C(=O)CCl : 7.55
Cc1noc([C@H]2Cc3c([nH]c4ccccc34)[C@H](c3ccccc3)N2C(=O)CCl)n1 : 7.36
COC(=O)[C@H]1Cc2c([nH]c3ccccc23)[C@H](c2cccc(S(C)(=O)=O)c2)N1C(=O)CCl : 6.24

====

Quick reference: half-life of the listed items.
Assay: Stability in human plasma assessed as half life
Assay type: ADME, cell-free
Experimental Readout: half-life (h)

COC(=O)[C@H]1Cc2c([nH]c3ccccc23)[C@H](c2ccc(C(F)(F)F)nc2)N1C(=O)CCl : 2.63
COC(=O)[C@H]1Cc2c([nH]c3ccccc23)[C@H](c2ccc(S(C)(=O)=O)nc2)N1C(=O)CCl : 3.33
COC(=O)[C@H]1Cc2c([nH]c3ccccc23)[C@H](c2ccc(OC)cc2)N1C(=O)CCl : 13
C#CC(=O)N1[C@@H](c2ccccc2)c2[nH]c3ccccc3c2C[C@@H]1C(=O)OC : 0.4
COC(=O)c1ccc([C@H]2c3[nH]c4ccccc4c3CCN2C(=O)CCl)cc1 : 1
CC(C)OC(=O)[C@H]1Cc2c([nH]c3ccccc23)[C@H](c2ccccc2)N1C(=O)CCl : 6.18
COC(=O)[C@H]1Cc2c([nH]c3ccccc23)[C@H](Cc2ccccc2)N1C(=O)CCl : 6.1

====

Assay: Metabolic stability in mouse liver microsomes assessed as unbound intrinsic clearance
Format: ADME, Microsome
# if value of CL free reaches 900 mL/min/kg, tag y; if it stays below, tag n

COC(=O)[C@H]1Cc2c([nH]c3ccccc23)[C@H](c2ccccc2)N1C(C)=O : y
COC(=O)[C@H]1Cc2c([nH]c3ccccc23)[C@H](c2ccc(S(C)(=O)=O)cn2)N1C(=O)CCl : n
COC(=O)[C@H]1Cc2c([nH]c3ccccc23)[C@H](c2ccc(S(C)(=O)=O)nc2)N1C(=O)CCl : n
COC(=O)[C@H]1Cc2c([nH]c3ccccc23)[C@H](C2CCOCC2)N1C(=O)CCl : n
COC(=O)[C@H]1Cc2c([nH]c3ccccc23)[C@H](c2cccc(S(C)(=O)=O)c2)N1C(=O)CCl : n

====

Assay: Half life in CB17 SCID-Beige mouse subcutaneously inoculated with WSUDLCL2 cells at 100 mg/kg, sc
Assay type: ADME, organism-based
Conditions: in vivo
Experimental Readout: half-life (h)

COC(=O)c1ccc([C@H]2c3[nH]c4ccccc4c3C[C@H](C(=O)OC)N2C(=O)CCl)cc1 : 4.1

====

Experiment: Unbound fraction in human plasma
Type: ADME, cell-free
Experimental Readout: fraction unbound

COC(=O)[C@H]1Cc2c([nH]c3ccccc23)[C@H](c2ccc(OC)cc2)N1C(=O)CCl : 0.068
COC(=O)[C@H]1Cc2c([nH]c3ccccc23)[C@H](C2CCOCC2)N1C(=O)CCl : 0.31
COC(=O)[C@H]1Cc2c([nH]c3ccccc23)[C@H](Cc2ccccc2)N1C(=O)CCl : 0.026
CC(C)OC(=O)[C@H]1Cc2c([nH]c3ccccc23)[C@H](c2ccccc2)N1C(=O)CCl : 0.011
Cc1noc([C@H]2Cc3c([nH]c4ccccc34)[C@H](c3ccccc3)N2C(=O)CCl)n1 : 0.013
O=C([C@H]1Cc2c([nH]c3ccccc23)[C@H](c2ccccc2)N1C(=O)CCl)N1CCCC1 : 0.061

====

Tested on: NCI-H1703
Test: Induction of ferroptosis in human NCI-H1703 cells assessed as cell viability incubated for 72 hrs in presence of ferrostatin-1 by CellTiter-Glo luminescent cell viability assay
Assay type: functional, cell-based
Details: NCI-H1703, 72 h
pEC50: −log10 of the molar value.
Experimental Readout: pEC50

COC(=O)[C@H]1Cc2c([nH]c3ccccc23)[C@H](c2cccc(S(C)(=O)=O)c2)N1C(=O)CCl : 5.25
COC(=O)[C@H]1Cc2c([nH]c3ccccc23)[C@H](c2ccc(S(C)(=O)=O)cc2)N1C(=O)CCl : 5.32
CN(C)C(=O)[C@H]1Cc2c([nH]c3ccccc23)[C@H](c2ccccc2)N1C(=O)CCl : 5.43
COC(=O)[C@H]1Cc2c([nH]c3ccccc23)[C@H](c2ccc(S(C)(=O)=O)nc2)N1C(=O)CCl : 5.61

====

Experiment: Half life in CB17 SCID-Beige mouse subcutaneously inoculated with WSUDLCL2 cells at 30 mg/kg, ip
Type: ADME, organism-based
Conditions: in vivo
Experimental Readout: half-life (h)

COC(=O)[C@H]1Cc2c([nH]c3ccccc23)[C@H](c2ccc(C(F)(F)F)cc2)N1C(=O)CCl : 1.4

====

Assay: Cmax in CB17 SCID-Beige mouse subcutaneously inoculated with WSUDLCL2 cells at 100 mg/kg, sc
Type: ADME, organism-based
Parameters: dose 100 mg/kg, route sc
Details: in vivo
Experimental Readout: Cmax (ng/mL)

COC(=O)c1ccc([C@H]2c3[nH]c4ccccc4c3C[C@H](C(=O)OC)N2C(=O)CCl)cc1 : 480

====

Assay: Metabolic stability in mouse liver microsomes assessed as unbound intrinsic clearance
Type: ADME, Microsome
# if value of CL free reaches 2000 mL/min/kg, tag 1; if it stays below, tag 0

Cc1noc([C@H]2Cc3c([nH]c4ccccc34)[C@H](c3ccc(S(C)(=O)=O)cc3)N2C(=O)CCl)n1 : 0
COC(=O)[C@H]1Cc2c([nH]c3ccccc23)[C@H](c2ccc(C(F)(F)F)nc2)N1C(=O)CCl : 0
COC(=O)c1ccc([C@H]2c3[nH]c4ccccc4c3C[C@H](C(=O)OC)N2C(=O)CCl)cc1 : 1
COC(=O)[C@H]1Cc2c([nH]c3ccccc23)[C@H](c2ccc(C(F)(F)F)cc2)N1C(=O)CCl : 1
COC(=O)[C@H]1Cc2c([nH]c3ccccc23)[C@H](Cc2ccccc2)N1C(=O)CCl : 1
CC(C)OC(=O)[C@H]1Cc2c([nH]c3ccccc23)[C@H](c2ccccc2)N1C(=O)CCl : 1
O=C([C@H]1Cc2c([nH]c3ccccc23)[C@H](c2ccccc2)N1C(=O)CCl)N1CCCC1 : 0
